pIC50: −log10 of the molar value.
Record: pIC50 reported on Glycogen synthase kinase-3 beta (Homo sapiens, UniProt P49841).
Sequence (P49841 whole entry): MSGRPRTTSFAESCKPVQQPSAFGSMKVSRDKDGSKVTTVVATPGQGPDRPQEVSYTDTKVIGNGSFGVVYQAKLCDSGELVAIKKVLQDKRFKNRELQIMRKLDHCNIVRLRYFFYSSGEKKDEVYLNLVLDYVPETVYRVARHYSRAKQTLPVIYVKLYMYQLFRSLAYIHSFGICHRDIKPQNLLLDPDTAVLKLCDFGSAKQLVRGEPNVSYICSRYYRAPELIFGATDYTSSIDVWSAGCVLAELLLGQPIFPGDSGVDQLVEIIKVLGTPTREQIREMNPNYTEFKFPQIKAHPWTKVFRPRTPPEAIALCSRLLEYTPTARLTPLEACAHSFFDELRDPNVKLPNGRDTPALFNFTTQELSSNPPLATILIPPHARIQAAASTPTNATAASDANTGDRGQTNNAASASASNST
Measured Quantity: pIC50

# Substance Smiles, System, Value Observed
rows = [
    ("O=C(Cc1ccc([N+](=O)[O-])cc1)N/N=C1\\C(=O)Nc2cc(Br)ccc21", "Glycogen synthase kinase-3 beta (Homo sapiens, UniProt P49841)", 5.38),
    ("O=C1NC(=O)N(c2ccccc2)/C1=C/Nc1ccc(C(=O)O)cc1", "Glycogen synthase kinase-3 beta (Homo sapiens, UniProt P49841)", 5.45),
    ("O=C1NC(=S)S/C1=C\\c1ccccc1OCOc1ccccc1/C=C1/SC(=S)NC1=O", "Glycogen synthase kinase-3 beta (Homo sapiens, UniProt P49841)", 5.06),
    ("Cc1ccc2c(c1Br)/C(=N/NC(N)=S)C(=O)N2", "Glycogen synthase kinase-3 beta (Homo sapiens, UniProt P49841)", 5.61),
    ("O=C1N=C(Nc2ccccc2Cl)S/C1=C/c1ccc(Cl)cc1", "Glycogen synthase kinase-3 beta (Homo sapiens, UniProt P49841)", 4.74),
    ("Cc1cc(Br)cc2c1NC(=O)/C2=N\\NC(N)=S", "Glycogen synthase kinase-3 beta (Homo sapiens, UniProt P49841)", 5.09),
    ("O=C1N/C(=N\\c2ccccc2Cl)S/C1=C/C=C/c1ccccc1", "Glycogen synthase kinase-3 beta (Homo sapiens, UniProt P49841)", 5.22),
    ("Cc1cccc(OCCOc2cccc(/C=C3\\SC(=S)NC3=O)c2)c1", "Glycogen synthase kinase-3 beta (Homo sapiens, UniProt P49841)", 5.59),
    ("O=C1Nc2ccccc2/C1=N/NC(=O)c1ccccc1O", "Glycogen synthase kinase-3 beta (Homo sapiens, UniProt P49841)", 4.74),
    ("O=C1N/C(=N\\c2ccc(O)cc2)S/C1=C1\\C(=O)Nc2ccc(Br)cc21", "Glycogen synthase kinase-3 beta (Homo sapiens, UniProt P49841)", 5.84),
    ("CSc1cc(-c2ccccc2)nc2[nH]nc(N)c12", "Glycogen synthase kinase-3 beta (Homo sapiens, UniProt P49841)", 4.89),
]
